Target: human TrkB on CHO cells (CHO-K1-hTrkB/pSRE-Luc) (human) (UniProt Q16620)
Sequence (Q16620 32-822): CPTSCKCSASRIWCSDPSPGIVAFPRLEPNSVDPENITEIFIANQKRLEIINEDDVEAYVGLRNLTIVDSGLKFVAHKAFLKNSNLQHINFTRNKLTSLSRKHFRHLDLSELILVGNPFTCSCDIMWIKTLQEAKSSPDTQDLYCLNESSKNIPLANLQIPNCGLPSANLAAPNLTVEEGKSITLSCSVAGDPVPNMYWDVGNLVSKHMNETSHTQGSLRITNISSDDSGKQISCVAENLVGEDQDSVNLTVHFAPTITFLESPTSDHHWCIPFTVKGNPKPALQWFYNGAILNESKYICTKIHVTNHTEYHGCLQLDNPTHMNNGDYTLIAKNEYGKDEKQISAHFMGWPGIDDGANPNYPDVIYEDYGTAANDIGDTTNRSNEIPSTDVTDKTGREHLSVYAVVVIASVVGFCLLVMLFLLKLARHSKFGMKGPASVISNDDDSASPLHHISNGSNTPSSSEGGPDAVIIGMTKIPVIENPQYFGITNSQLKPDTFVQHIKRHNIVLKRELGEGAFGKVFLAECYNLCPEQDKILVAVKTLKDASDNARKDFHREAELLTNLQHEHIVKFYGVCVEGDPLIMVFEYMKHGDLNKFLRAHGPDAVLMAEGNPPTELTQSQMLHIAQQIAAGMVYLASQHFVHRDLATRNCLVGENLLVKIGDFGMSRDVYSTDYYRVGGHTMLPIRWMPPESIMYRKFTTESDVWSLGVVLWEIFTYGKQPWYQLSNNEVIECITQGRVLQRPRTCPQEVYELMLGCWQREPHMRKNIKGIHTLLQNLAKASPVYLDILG
Assay: cell-based or functional assay
measured property: BDNF activity in TrkBluciferase assay, EC50 [% or nM] (%)
Write it as a number; the unit % goes unstated.

Input line: // BDNF activity in TrkBluciferase assay, EC50 [% or nM] lookup, key: pre-pro-BDNF(-RGR; K25N; G62N; Y63G)-T7-His6 (ligand) APMKEANIRGQGGLAYPGVRTHGTLESVNGPKAGSRGLTSLADTFEHVIEELLDEDQKVRPNEENNKDADLYTSRVMLSSQVPLEPPLLFLLEEYKNYLDAANMSMRVRRHSDPARRGELSVCDSISEWVTAADNKTAVDMSGGTVTVLEKVPVSKGQLKQYFYETKCNPMNGTKEGCRGIDKRHWNSQCRTTQSYVRALTMDSKKRIGWRFIRIDTSCVCTLTIKGSGMASMTGGQQMGHHHHHH
Output line: 276

Data provenance is patent US20190271021A1.
